- assaySystem: aromatase (Homo sapiens, UniProt P11511)
- Construct: human placenta microsomes (a protein concentration of 0.1 mg/ml); from tissue; host or cells: human placenta microsomes
- Sequence (P11511 whole entry): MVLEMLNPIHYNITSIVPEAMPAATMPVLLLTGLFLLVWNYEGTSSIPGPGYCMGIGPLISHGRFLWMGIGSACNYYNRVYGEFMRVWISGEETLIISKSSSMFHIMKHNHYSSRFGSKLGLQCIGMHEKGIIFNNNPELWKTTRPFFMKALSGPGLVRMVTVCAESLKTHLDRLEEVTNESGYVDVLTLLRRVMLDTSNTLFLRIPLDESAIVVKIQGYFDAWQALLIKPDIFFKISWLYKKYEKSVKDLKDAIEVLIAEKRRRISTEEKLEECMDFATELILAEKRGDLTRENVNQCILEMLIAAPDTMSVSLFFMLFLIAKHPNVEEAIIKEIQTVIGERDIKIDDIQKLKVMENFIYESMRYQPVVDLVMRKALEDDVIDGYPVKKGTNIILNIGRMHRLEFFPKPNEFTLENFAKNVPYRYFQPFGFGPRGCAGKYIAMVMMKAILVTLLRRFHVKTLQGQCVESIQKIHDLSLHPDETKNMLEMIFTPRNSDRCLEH
- test: Aromatase inhibitory activity (human placenta microsomes, [19-14C]4-androstene-3,17-dione)
- Assay type: biochemical
- assayContext: human placenta microsomes, substrate 1×10^-6 M, pH 7.2, 37° C., 30 minutes; read-out: IC50
pIC50: −log10 of the molar value.
quantityName: pIC50

- molecule: "CC1(C)OCC(Cc2ccccc2-c2ccccc2)C1(O)Cn1ccnc1 (centres unmarked)"
  assaySystem: "aromatase (Homo sapiens, UniProt P11511)"
  resultValue: 6.46
- molecule: "OC1(Cn2cncn2)COCC1Cc1ccc(F)cc1 (centres unmarked)"
  assaySystem: "aromatase (Homo sapiens, UniProt P11511)"
  resultValue: 5.33
- molecule: "OC1(Cn2ccnc2)COCC1Cc1ccc(F)cc1 (centres unmarked)"
  assaySystem: "aromatase (Homo sapiens, UniProt P11511)"
  resultValue: 6.20
- molecule: "CC1(C)OCC(Cc2ccc(C#N)cc2)C1(O)Cn1ccnc1 (centres unmarked)"
  assaySystem: "aromatase (Homo sapiens, UniProt P11511)"
  resultValue: 6.00
- molecule: "CC1OCC(Cc2ccc(F)cc2)C1(O)Cn1ccnc1 (centres unmarked)"
  assaySystem: "aromatase (Homo sapiens, UniProt P11511)"
  resultValue: 6.28

meta.source: patent US5462957A
